Biological target: T1, recombinant H2-HA, A/Japan/305/57 (H2N2) (Influenza A virus A/Japan/305/1957 …, UniProt P03451, strain)
T1 construct: source: bought: E-Enzymes (Protein Sciences in the SPR methods)
Test: SPR
Conditions: both partners purified
MEASURED_QUANTITY: binding result

R1a-A5 (VHH, also called R1a-A5 monovalent; source: E. coli WK6 periplasm, purified (Talon IMAC, Superdex 75 SEC)) VHH: QVQLVESGGGLVQPGGSLRLSCSASGSAVLFSTYPMSWYRQAPGKQRELVAAVTTDGSTSYADYAKGRFTISRDNAKNTVYLQMNSLKPEDTAVYYCNARDGFFNRYDYWGQGTQVTVSS; no binding
R1a-G5 (VHH, source: E. coli WK6 periplasm, purified (Talon IMAC, Superdex 75 SEC)) VHH: QLQLVESGGGLVQPGGSLRLSCAASGSISRIVTMGWYRQASGKERELVAVIGNYGNTNYADSVKGRFTVSRDNAKDTAYLQMNGLNVEDTAIYYCKTSTTTPPYEYWGQGTQVTVSS; no binding
